# studySystem: LINE1 reverse transcriptase (Homo sapiens)
# methodNotes: Homogeneous time-resolved fluorescence (HTRF) LINE1 RT assay
# Format: biochemical
# Design: recombinant MBP-tagged LINE1 protein (238-1061); MBP; made in house
# experimentalSetup: recombinant MBP-tagged LINE1 protein (238-1061), read-out: IC50, inhibition of LINE1 reverse transcriptase
# Description: The LINE1 reverse transcriptase homogeneous time-resolved fluorescence (HTRF) assay was performed with recombinant MBP-tagged LINE1 protein (238-1061) (generated and purified according to procedures in Dai L. et al. BMC Biochemistry 2011; 12:18) in a 384-well format. Test compound was serially diluted in DMSO and further diluted in the assay buffer (50 mM Tris-HCl, 50 mM KCl, 10 mM MgCl2, 10 mM DTT, pH 8.1) to achieve a final DMSO concentration of 1%. […]
quantity: pIC50
Would you please state pIC50, meaning minus log10 of the concentration in mol/L, as a bare number?

Q: Quick check: pIC50 of C#C[C@@]1(COP(=O)(O)OP(=O)(O)OP(=O)(O)O)C=C[C@H](n2cc(C)c(=O)[nH]c2=O)O1 ?
Result: 7.15

====

# studySystem: LINE1 reverse transcriptase (Homo sapiens, UniProt O00370)
# methodNotes: Stable artificial-intron Cis LINE1 reporter assay
# Format: cell-based
# Parameters: expressed in transfected cells
# experimentalSetup: HeLa L1 artificial-intron reporter cells, doxycycline induced, 72 h, Firefly luciferase; read-out: IC50, inhibition of LINE1 reverse transcriptase
quantity: IC50 (nM)
Express your answer in nM, writing the number without its unit.

Q: Quick check: IC50 of C#C[C@@]1(CO)C=C[C@H](n2cc(C)c(=O)[nH]c2=O)O1 [drawing 16] ?
Result: 130

====

# studySystem: HERV-K reverse transcriptase (Homo sapiens, UniProt V9H0F6)
# Sequence (V9H0F6 entry or part of it): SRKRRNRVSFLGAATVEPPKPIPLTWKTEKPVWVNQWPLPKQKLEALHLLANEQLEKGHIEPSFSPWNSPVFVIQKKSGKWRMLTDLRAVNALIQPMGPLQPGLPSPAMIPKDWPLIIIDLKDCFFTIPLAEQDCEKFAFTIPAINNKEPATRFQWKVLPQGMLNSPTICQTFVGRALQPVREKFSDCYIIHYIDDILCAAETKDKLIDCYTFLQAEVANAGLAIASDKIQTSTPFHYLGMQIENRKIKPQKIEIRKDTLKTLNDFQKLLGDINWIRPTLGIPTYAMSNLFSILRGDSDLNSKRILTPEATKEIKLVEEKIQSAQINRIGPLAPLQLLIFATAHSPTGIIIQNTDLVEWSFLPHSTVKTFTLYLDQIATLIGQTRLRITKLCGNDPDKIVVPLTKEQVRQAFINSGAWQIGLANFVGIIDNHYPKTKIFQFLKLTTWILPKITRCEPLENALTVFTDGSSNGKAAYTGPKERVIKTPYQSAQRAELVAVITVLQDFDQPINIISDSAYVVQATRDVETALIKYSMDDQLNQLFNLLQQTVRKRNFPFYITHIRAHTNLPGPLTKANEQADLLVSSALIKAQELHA
quantity: IC50

Q: Request body: readout IC50, system HERV-K reverse transcriptase (Homo sapiens, UniProt V9H0F6), query C#C[C@@]1(COP(=O)(O)OP(=O)(O)OP(=O)(O)O)C=C[C@H](n2cc(C)c(=O)[nH]c2=O)O1 . Return the value.
Result: 6.4 µM
